target: 3E10-D31N IgG4 S228P/F234A/L235A/M252Y/S254T/T256E (synthetic construct, UniProt P01861; SEQ:1-443,SEQ:1-218); test: BLI; 1:1 model; antibody on AHC2 sensor; RNA 62.5-500 nM; details: tags: human IgG4 Fc; chain copies: 2 heavy + 2 light (inferred); hairpin
Sequence (P01861 other isoform, or with tags, fused parts or gaps with the stated changes, chain 1 of 2): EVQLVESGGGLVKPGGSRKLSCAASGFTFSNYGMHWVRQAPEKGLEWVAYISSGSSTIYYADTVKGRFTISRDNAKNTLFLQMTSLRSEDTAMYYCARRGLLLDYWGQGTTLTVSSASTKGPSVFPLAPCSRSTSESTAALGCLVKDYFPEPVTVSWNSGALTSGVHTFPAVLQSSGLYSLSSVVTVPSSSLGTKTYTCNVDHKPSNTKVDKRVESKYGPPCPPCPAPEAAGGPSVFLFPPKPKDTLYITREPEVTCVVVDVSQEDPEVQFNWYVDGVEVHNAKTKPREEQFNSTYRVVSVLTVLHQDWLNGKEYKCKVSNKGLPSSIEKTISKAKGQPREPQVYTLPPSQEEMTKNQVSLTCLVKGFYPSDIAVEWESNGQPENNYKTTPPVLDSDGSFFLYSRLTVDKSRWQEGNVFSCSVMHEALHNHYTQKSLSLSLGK
Sequence (chain, as listed by the source with the stated changes, chain 2 of 2): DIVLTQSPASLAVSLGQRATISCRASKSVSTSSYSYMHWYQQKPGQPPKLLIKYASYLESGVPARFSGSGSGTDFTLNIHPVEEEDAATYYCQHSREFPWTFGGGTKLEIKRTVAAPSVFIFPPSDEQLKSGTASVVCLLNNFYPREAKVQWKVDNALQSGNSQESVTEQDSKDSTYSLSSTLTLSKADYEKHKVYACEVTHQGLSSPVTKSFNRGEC
Measurement name: Kd
Please answer in the form of a number followed by its unit of measurement.

query: Consider the binder shown here: 3p-hpRNA RIG-I agonist (89 nt) (ssRNA, 5'-triphosphate) RNA: GGAGCAAAAGCAGGGUGACAAAGACAUAAUGGAUCCAAACACUGUGUCAAGCUUUCAGGUAGAUUGCUUUCUUUGGCAUGUCCGCAAAC What is its recorded Kd?
result: 5 nM
